Source listed as the supplement of paper PMC8728848.

molecular target: Gal(b1-3)GalNAc(b1-4)[Neu5Ac(a2-3)]Gal(b1-4)Glc; test: glycan array binding signal (z-score within array); higher = stronger binding; details: glycan notation: IUPAC condensed, linker removed
This is one part of a sample in which the strongest signals are shown more often than they occur.
Parameter: glycan array binding signal (z-score)
# answer = number (no unit)

Task: Which glycan array binding signal (z-score) reading was recorded for the binder MIC4-A5 (Toxoplasma gondii), Q9XZH7 (protein) SPDFHDEVECVHTGNIGSKAQTIGEVKRASSLSECRARCQAEKECSHYTYNVKSGLCYPKRGKPQFYKYLGDMTGSRTCDTS ?
Result: 5.3

Task: Which glycan array binding signal (z-score) reading was recorded for the binder SrpA (Streptococcus sanguis) (protein) SSKSESTVNSQSASSETNRSSTNNGSTSSSSETARVRKRRATDTTPPTITVPSDIIAYRGEEFEFYFEITDDSGQVKNIELSTFGKPLGLNWLEYSEDNFNVPGNATSDNPLRVRVHGTVPLNEPIPADKNRAQFTRTIRAWDAAGNVSSNITFVIKYRAQTDKYNPADPTITYVDRLSSLSPSEKNAVEAAVRAANPQIPAAARITVSANGTVTITYPDSSTDTITANRVVKDLASSRSALT ?
Result: -0.532

Task: Which glycan array binding signal (z-score) reading was recorded for the binder Epa3 (Candida glabrata), Q6VBI8_CANGB (protein) MGSSHHHHHHSSGLVPRGSHMNDLGFSLFEKRELSSQNPFGYPIGCSPQDVAIIPGLTMELYSYPIVSGTPPNCYDASYVDPEYPRTGYLKRKMVGKSTGVTGNLNYKYSVEKACMVKYGNLPAGYNYNEPLTVSNFTMILYGYFKAQTTGLHTFFVNADDLLYINFGAGNAFDCCKREDSKTKLGEYVAYDIWHVDSSKNKVSLFLEKDLYYPIRMFFNNIGKDSSLDLSFSVNGATDQISDFSGYLYSVPDQPDTCPAHIGYDTTCR ?
Result: 2.86
